Recorded growth inhibition values for a group of molecules are listed next.
Assay: NCI Yeast Anticancer Drug Screen. Data for the cln2 rad14 strain (AID 165);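 also: 0% = growth equal to vehicle treated cultures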
Conditions: S. cerevisiae cln2 rad14 strain, at 50.0 µM, active compounds read high
About 79,000 compounds went through this panel and 15% of them were active in at least one assay; those are over-represented in the sample as a whole.
// note: answer is a bare numeric in %

Below, each entry is followed by its recorded growth inhibition result.
- molecule: "S=C(NCc1cccc2ccccc12)Nc1ccccc1"
  recorded measurement: -27.5
- molecule: "COc1cccc(C=O)c1[O-].COc1cccc(C=O)c1[O-].[Zn+2]"
  recorded measurement: 32.2

## Task Fill in the blank: the reported growth inhibition of Cc1c(CCC(C)C)oc2cc3oc(CCC(C)C)c(C)c3cc12 is ____.
## Result -4.8

## Task Fill in the blank: the reported growth inhibition of CCOC(=O)c1ccc(Nc2nc3ccccc3nc2C(=O)OCC)cc1 is ____.
## Result -3.7

## Task Fill in the blank: the reported growth inhibition of CC(C)c1ccc2c(c1)CC[C@H]1[C@](C)(COCCC#N)CCC[C@]21C is ____.
## Result -63.1

## Task Fill in the blank: the reported growth inhibition of C[Si](C)(C)CCCn1ccc(=O)[nH]c1=O is ____.
## Result -8.15

## Task Fill in the blank: the reported growth inhibition of CC(=O)Nc1cc(N)ccc1C is ____.
## Result -18.2

## Task Fill in the blank: the reported growth inhibition of CC(=O)OCC1OC(n2nnc3c(=O)n(C)c(=O)[nH]c32)C(OC(C)=O)C(OC(C)=O)C1OC(C)=O (configuration not stated) is ____.
## Result 4

## Task Fill in the blank: the reported growth inhibition of Cc1cc(C)cc(O)c1 is ____.
## Result -13.2

## Task Fill in the blank: the reported growth inhibition of O=C1C=C(Nc2cccnc2)c2ccccc2C1=O is ____.
## Result 8.5

## Task Fill in the blank: the reported growth inhibition of O=C(Nc1ccc([N+](=O)[O-])cc1)Nc1nccnn1 is ____.
## Result -39.9

## Task Fill in the blank: the reported growth inhibition of CC1=C(C(c2ccccc2)c2ccccc2)C(=O)c2ccccc2C1=O is ____.
## Result 1.5

====

Experiment: NCI Yeast Anticancer Drug Screen. Data for the bub3 strain (AID 167)
Conditions: S. cerevisiae bub3 mutant strain, at 50.0 µM, active compounds read high
The panel holds about 79,000 compounds, 15% with a hit somewhere; the sample as a whole holds those more often.
Recorded growth inhibition values for a group of compounds are listed next.
// note: answer is a bare numeric in %

Below, each entry is followed by its recorded growth inhibition result.
- compound: "CC1=C(C(=O)NNC(=O)CC#N)CC(C(=O)NNC(=O)CC#N)=C(C)N1"
  property name: "growth inhibition"
  recorded measurement: -27.4
- compound: "C=C(C)C(=O)N1c2ccc(OC)cc2CC1C(=O)OCC (stereo not given)"
  property name: "growth inhibition"
  recorded measurement: 15.8
- compound: "CC(=O)NC1=NC(=O)/C(=C/c2ccc(/C=C3/C(=O)N=C(NC(C)=O)N3C)cc2)N1C"
  property name: "growth inhibition"
  recorded measurement: -9.05
- compound: "O=C1CCC(c2ccccc2)C(O)(C(=O)O)C1 (stereo not given)"
  property name: "growth inhibition"
  recorded measurement: -14.3
- compound: "CCOC=C(C(=O)OCC)C(=O)OCC"
  property name: "growth inhibition"
  recorded measurement: -10.6

Moving on to the next compound.
## Task Fill in the blank: the reported growth inhibition of O=[N+]([O-])c1cc(F)cc(F)c1Nc1ccccc1 is ____.
## Result 0.5
